system: Staphylococcus aureus; experiment: Antibacterial activity against Staphylococcus aureus MTCC 737 after 24 hrs by cup diffusion method; assay type: functional; conditions: MTCC 737, 24 h
measurement_name: MIC

# compound, measurement_name, observed_result
rows = [
    ("COc1ccc(C2=NOC(Cc3ccc4c(c3)OCO4)CC2)cc1OC (centres undefined)", "MIC", "10 mg/L"),
    ("N#CC1CCC(c2ccc3c(c2)CCC3)=NO1 (centres undefined)", "MIC", "15 mg/L"),
    ("Cc1ccc(C2=NOC(C#N)CC2)cc1 (centres undefined)", "MIC", "15 mg/L"),
    ("CCOC(=O)C1CCC(c2ccc(C)c(C)c2)=NO1 (centres undefined)", "MIC", "10 mg/L"),
    ("COc1ccc(C2=NOC(C#N)CC2)cc1OC (centres undefined)", "MIC", "15 mg/L"),
]

Okay, now this compound:
Sure, the documented MIC for c1cc2c(cc1CC1CCC(c3ccc4c(c3)CCC4)=NO1)OCO2 (centres undefined) is 10 mg/L
